Test: Degradation of nine organochlorine pesticides by gamma irradiation in samples of P. quinquefolium (GC analysis)
Format: physicochemical
Conditions: 15 kGy gamma irradiation, P. quinquefolium samples, mean of three
Exam item: assign criterion met to entries whose remaining concentration of organochlorine pesticides in samples is below 0.2 ppm and criterion not met to entries at or above 0.2 ppm. Note that a value of exactly 0.2 ppm receives criterion not met.

# example entries with known answers
// query Determine whether this compound shows remaining concentration of organochlorine pesticides in samples lower than 0.2 ppm (ties excluded): `ClC(Cl)=C(c1ccc(Cl)cc1)c1ccc(Cl)cc1`
// result criterion not met

// query Determine whether this compound shows remaining concentration of organochlorine pesticides in samples lower than 0.2 ppm (ties excluded): `Clc1ccc(C(c2ccc(Cl)cc2)C(Cl)Cl)cc1`
// result criterion not met

// query Determine whether this compound shows remaining concentration of organochlorine pesticides in samples lower than 0.2 ppm (ties excluded): ClC1=C(Cl)C2(Cl)C3C(Cl)C=CC3C1(Cl)C2(Cl)Cl (stereo not drawn)
// result criterion not met

// query Determine whether this compound shows remaining concentration of organochlorine pesticides in samples lower than 0.2 ppm (ties excluded): `Clc1ccc(C(c2ccc(Cl)cc2)C(Cl)(Cl)Cl)cc1`
// result criterion met

// query Determine whether this compound shows remaining concentration of organochlorine pesticides in samples lower than 0.2 ppm (ties excluded): ClC1=C(Cl)C2(Cl)C3C4C=CC(C4)C3C1(Cl)C2(Cl)Cl (stereo not drawn)
// result criterion not met

Here's the next entry for you.
// query Determine whether this compound shows remaining concentration of organochlorine pesticides in samples lower than 0.2 ppm (ties excluded): O=S1OC[C@@H]2[C@H](CO1)[C@@]1(Cl)C(Cl)=C(Cl)[C@]2(Cl)C1(Cl)Cl (stereo partly drawn) [Endosulfan-1]
// result criterion not met

----------
Test: Concentration of marker components (ginsenosides) in P. quinquefolium samples after gamma irradiation (HPLC)
Type: physicochemical
Details: 10 kGy gamma irradiation, mean ± SD, three repeats
Assign concentration of marker components of P. quinquefolium (ginsenoside) to each entry below.
Answer by giving the amount and then stating its unit.

Here is how some compounds turned out for concentration of marker components of P. quinquefolium (ginsenoside).
// query Returns the measured concentration of marker components of P. quinquefolium (ginsenoside) for the input compound. Input: CC(C)=CCC[C@](C)(O[C@@H]1O[C@H](CO)[C@@H](O)[C@H](O)[C@H]1O)[C@H]1CC[C@]2(C)[C@@H]1[C@H](O)C[C@@H]1[C@@]3(C)CC[C@H](O[C@@H]4O[C@H](CO)[C@@H](O)[C@H](O)[C@H]4O[C@@H]4O[C@H](CO)[C@@H](O)[C@H](O)[C@H]4O)C(C)(C)[C@@H]3CC[C@]12C [Rd, ginsenoside Rd]
// result 8.77 ± 0.15 mg/g

// query Returns the measured concentration of marker components of P. quinquefolium (ginsenoside) for the input compound. Input: CC(C)=CCC[C@](C)(O[C@@H]1O[C@H](CO[C@@H]2O[C@H](CO)[C@@H](O)[C@H](O)[C@H]2O)[C@@H](O)[C@H](O)[C@H]1O)[C@H]1CC[C@]2(C)[C@@H]1[C@H](O)C[C@@H]1[C@@]3(C)CC[C@H](O[C@@H]4O[C@H](CO)[C@@H](O)[C@H](O)[C@H]4O[C@@H]4O[C@H](CO)[C@@H](O)[C@H](O)[C@H]4O)C(C)(C)[C@@H]3CC[C@]12C [Rb1, ginsenoside Rb1]
// result 31.01 ± 0.11 mg/g

// query Returns the measured concentration of marker components of P. quinquefolium (ginsenoside) for the input compound. Input: CC(C)=CCC[C@](C)(O[C@@H]1O[C@H](CO)[C@@H](O)[C@H](O)[C@H]1O)[C@H]1CC[C@]2(C)[C@@H]1[C@H](O)C[C@@H]1[C@@]3(C)CC[C@H](O)C(C)(C)[C@@H]3[C@@H](O[C@@H]3O[C@H](CO)[C@@H](O)[C@H](O)[C@H]3O[C@@H]3O[C@@H](C)[C@H](O)[C@@H](O)[C@H]3O)C[C@]12C [Re, ginsenoside Re]
// result 15.79 ± 0.21 mg/g

// query Returns the measured concentration of marker components of P. quinquefolium (ginsenoside) for the input compound. Input: CC(C)=CCC[C@](C)(O[C@@H]1O[C@H](CO[C@@H]2O[C@@H](CO)[C@H](O)[C@H]2O)[C@@H](O)[C@H](O)[C@H]1O)[C@H]1CC[C@]2(C)[C@@H]1[C@H](O)C[C@@H]1[C@@]3(C)CC[C@H](O[C@@H]4O[C@H](CO)[C@@H](O)[C@H](O)[C@H]4O[C@@H]4O[C@H](CO)[C@@H](O)[C@H](O)[C@H]4O)C(C)(C)[C@@H]3CC[C@]12C [Rc, ginsenoside Rc]
// result 15.91 ± 0.43 mg/g

Moving on to the next compound.
// query Returns the measured concentration of marker components of P. quinquefolium (ginsenoside) for the input compound. Input: CC(C)=CCC[C@](C)(O[C@@H]1O[C@H](CO)[C@@H](O)[C@H](O)[C@H]1O)[C@H]1CC[C@]2(C)[C@@H]1[C@H](O)C[C@@H]1[C@@]3(C)CC[C@H](O)C(C)(C)[C@@H]3[C@@H](O[C@@H]3O[C@H](CO)[C@@H](O)[C@H](O)[C@H]3O)C[C@]12C [Rg1, ginsenoside Rg1]
// result 1.56 ± 0.06 mg/g
